Entry source: ChEMBL document CHEMBL1938342

biological target: Carbonic anhydrase 9 (Homo sapiens); assay: Inhibition of human recombinant CA9 after 6 hrs by stopped flow CO2 hydration assay
Measured pKi, listed per entry.
# pKi: negative log10 of molar concentration; output just the value

Example entries begin here.
{"MOLECULE": "Cc1cc(=O)oc2cc(O[C@H]3O[C@H](CO)[C@@H](O)[C@H](O)[C@@H]3O)ccc12", "pKi": 8.04}
{"MOLECULE": "Cc1cc(=O)oc2cc(O)ccc12 [HYMECROMONE]", "pKi": 6.25}
{"MOLECULE": "Cc1cc(=O)oc2cc(O[C@@H]3O[C@H](CO)[C@H](O)[C@H](O)[C@H]3O)ccc12", "pKi": 7.03}
{"MOLECULE": "Cc1cc(=O)oc2cc(O[C@@H]3O[C@@H](C)[C@H](O)[C@@H](O)[C@H]3O)ccc12", "pKi": 6.70}
{"MOLECULE": "Cc1cc(=O)oc2cc(O[C@@H]3O[C@H](CO[C@H]4O[C@H](CO)[C@H](O)[C@H](O)[C@H]4O)[C@@H](O)[C@H](O)[C@H]3O)ccc12", "pKi": 6.09}

As a next step, examine the molecule that follows.
Specify reported pKi for the molecule shown: Cc1cc(=O)oc2cc(O[C@@H]3O[C@H](CO)[C@@H](O)[C@H](O)[C@H]3O)ccc12
6.43

----------
Entries with their measured Ki, system UniProt:P00918:

{"MOLECULE": "Cc1cc(=O)oc2cc(O[C@@H]3O[C@H](CO[C@H]4O[C@H](CO)[C@H](O)[C@H](O)[C@H]4O)[C@@H](O)[C@H](O)[C@H]3O)ccc12", "ASSAYED SYSTEM": "UniProt:P00918", "Ki": "0.59 µM"}
{"MOLECULE": "Cc1cc(=O)oc2cc(O[C@H]3O[C@H](CO)[C@@H](O)[C@H](O)[C@@H]3O)ccc12", "ASSAYED SYSTEM": "UniProt:P00918", "Ki": "> 100 µM"}
{"MOLECULE": "Cc1cc(=O)oc2cc(O[C@@H]3O[C@H](CO)[C@H](O)[C@H](O)[C@H]3O)ccc12", "ASSAYED SYSTEM": "UniProt:P00918", "Ki": "77 µM"}
{"MOLECULE": "Cc1cc(=O)oc2cc(O)ccc12 [HYMECROMONE]", "ASSAYED SYSTEM": "UniProt:P00918", "Ki": "> 100 µM"}

As a next step, examine the molecule that follows.
Specify reported Ki for the molecule shown: Cc1cc(=O)oc2cc(O[C@@H]3O[C@@H](C)[C@H](O)[C@@H](O)[C@H]3O)ccc12
> 100 µM

----------
target: Carbonic anhydrase 12 (Homo sapiens); assay: Inhibition of human recombinant CA12 after 6 hrs by stopped flow CO2 hydration assay
Sequence (O43570 whole entry): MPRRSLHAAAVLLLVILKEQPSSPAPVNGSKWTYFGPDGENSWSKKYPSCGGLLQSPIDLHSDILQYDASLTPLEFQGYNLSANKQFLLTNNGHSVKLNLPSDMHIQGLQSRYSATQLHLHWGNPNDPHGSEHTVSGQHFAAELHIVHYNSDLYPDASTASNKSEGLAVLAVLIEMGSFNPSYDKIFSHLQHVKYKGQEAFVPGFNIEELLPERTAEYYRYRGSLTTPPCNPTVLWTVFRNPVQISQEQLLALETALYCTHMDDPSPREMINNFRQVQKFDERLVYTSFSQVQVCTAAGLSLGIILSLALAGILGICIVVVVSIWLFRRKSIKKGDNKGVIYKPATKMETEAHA
pKi: −log10 of the molar value.
Each entry gets No if its pKi stays under 7, and Yes if its pKi is 7 or above.

{"QUERY SMILES": "Cc1cc(=O)oc2cc(O[C@@H]3O[C@@H](C)[C@H](O)[C@@H](O)[C@H]3O)ccc12", "ASSAYED SYSTEM": "Carbonic anhydrase 12 (Homo sapiens)", "CLASS LABEL": "No"}
{"QUERY SMILES": "Cc1cc(=O)oc2cc(O[C@@H]3O[C@H](CO)[C@@H](O)[C@H](O)[C@H]3O)ccc12", "ASSAYED SYSTEM": "Carbonic anhydrase 12 (Homo sapiens)", "CLASS LABEL": "Yes"}

Determine whether measured pKi meets or exceeds 7 for Cc1cc(=O)oc2cc(O[C@@H]3O[C@H](CO)[C@H](O)[C@H](O)[C@H]3O)ccc12
Yes

Determine whether measured pKi meets or exceeds 7 for Cc1cc(=O)oc2cc(O)ccc12
No

Determine whether measured pKi meets or exceeds 7 for Cc1cc(=O)oc2cc(O[C@H]3O[C@H](CO)[C@@H](O)[C@H](O)[C@@H]3O)ccc12
Yes

----------
Measured pKi, listed per entry.
molecular target: Carbonic anhydrase 1 (Homo sapiens, UniProt P00915)
Sequence (P00915 whole entry): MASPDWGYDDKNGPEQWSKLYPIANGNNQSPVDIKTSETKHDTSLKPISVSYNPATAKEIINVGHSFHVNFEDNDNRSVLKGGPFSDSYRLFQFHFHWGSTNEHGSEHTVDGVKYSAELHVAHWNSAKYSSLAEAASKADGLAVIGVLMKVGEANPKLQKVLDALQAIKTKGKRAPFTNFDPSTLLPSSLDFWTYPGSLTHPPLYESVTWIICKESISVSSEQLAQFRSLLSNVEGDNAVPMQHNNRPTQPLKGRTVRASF
# pKi: negative log10 of molar concentration; output just the value

{"QUERY SMILES": "Cc1cc(=O)oc2cc(O[C@@H]3O[C@H](CO)[C@H](O)[C@H](O)[C@H]3O)ccc12", "pKi": 6.23}

As a next step, examine the molecule that follows.
Specify reported pKi for the molecule shown: Cc1cc(=O)oc2cc(O[C@@H]3O[C@H](CO)[C@@H](O)[C@H](O)[C@H]3O)ccc12
6.00

----------
Measured Ki, listed per entry.
biological target: Carbonic anhydrase 1 (Homo sapiens, UniProt P00915); test: Inhibition of human full-length cytosolic CA1 after 6 hrs by stopped flow CO2 hydration assay

Example entries begin here.
{"QUERY SMILES": "Cc1cc(=O)oc2cc(O[C@@H]3O[C@@H](C)[C@H](O)[C@@H](O)[C@H]3O)ccc12", "Ki": "> 100 µM"}
{"QUERY SMILES": "Cc1cc(=O)oc2cc(O[C@H]3O[C@H](CO)[C@@H](O)[C@H](O)[C@@H]3O)ccc12", "Ki": "> 100 µM"}

Specify reported Ki for the compound shown: Cc1cc(=O)oc2cc(O)ccc12
> 100 µM
